- study-target: Mitochondrial complex I; NADH oxidoreductase (Bos taurus, UniProt P25708+P52505)
- Sequence (P25708 21-464 limits assumed, other chains not shown): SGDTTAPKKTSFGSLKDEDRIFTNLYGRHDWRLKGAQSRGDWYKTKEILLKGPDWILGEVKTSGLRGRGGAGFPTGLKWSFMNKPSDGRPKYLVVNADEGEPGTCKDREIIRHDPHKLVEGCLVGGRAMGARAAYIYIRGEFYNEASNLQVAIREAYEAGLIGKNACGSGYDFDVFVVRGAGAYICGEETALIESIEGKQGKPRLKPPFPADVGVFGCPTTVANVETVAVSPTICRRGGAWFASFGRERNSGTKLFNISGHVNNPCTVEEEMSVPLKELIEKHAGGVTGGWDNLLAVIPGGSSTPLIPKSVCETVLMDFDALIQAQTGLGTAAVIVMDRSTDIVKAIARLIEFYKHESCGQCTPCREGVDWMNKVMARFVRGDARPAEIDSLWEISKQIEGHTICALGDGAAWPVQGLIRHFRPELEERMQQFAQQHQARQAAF
- assay-info: Inhibition of bovine mitochondrial NADH-ubiquinone oxidoreductase by NADH oxidase assay
pIC50: −log10 of the molar value.
measured-quantity: pIC50

* CCCCCCCCCC[C@@H](O)[C@H]1CC[C@H]([C@H]2CC[C@H]([C@@H](C)O)O2)O1 | 6.55
* CCCCCCCCCC[C@@H](O)[C@H]1CC[C@H]([C@H]2CC[C@H]([C@H](O)CCCCCCCCCC)O2)O1 | 8.77
* CCCCCCCCCC[C@@H](O)[C@H]1CC[C@H]([C@H]2CC[C@H]([C@H](O)CC)O2)O1 | 7.35
* CCCCCCCCCCCC[C@@H](O)[C@H]1CC[C@H]([C@H]2CC[C@H]([C@H](O)CCCCCCCCCCCC)O2)O1 | 8.05
* CCCCCCCCCC[C@@H](O)[C@H]1CC[C@H]([C@H]2CC[C@H]([C@H](O)CCCC(CCC)CCC)O2)O1 | 7.57
* CCCCCCCC[C@@H](O)[C@H]1CC[C@H]([C@H]2CC[C@H]([C@H](O)CCCCCCCC)O2)O1 | 7.35
* CCCCCCCCCCCC[C@@H](O)[C@H]1CC[C@H]([C@H]2CC[C@H]([C@H](O)CCCCCCCC)O2)O1 | 8.12
* CCCCCCCCCCCCCC[C@@H](O)[C@H]1CC[C@H]([C@H]2CC[C@H]([C@H](O)CCCCCC)O2)O1 | 7.47
* CCCCCCCCCCCCCC[C@@H](O)[C@H]1CC[C@H]([C@H]2CC[C@H]([C@@H](C)O)O2)O1 | 6.39
* CCCC(CCC)CCC[C@@H](O)[C@H]1CC[C@H]([C@H]2CC[C@H]([C@H](O)CCCC(CCC)CCC)O2)O1 | 5.82
* CCCCC(CC)CCC[C@@H](O)[C@H]1CC[C@H]([C@H]2CC[C@H]([C@H](O)CCCC(CC)CCCC)O2)O1 (some centres not stated) | 6.06
* CCCCCCCCCC[C@@H](O)[C@H]1CC[C@H]([C@H]2CC[C@H]([C@H](O)CCCCCC)O2)O1 | 8.49
